# target-or-system: T1, cyno FcRn/b2M (cyno, UniProt Q8SPV9 24-297; Q8SPW0 21-119, biotinylated)
# T1 construct: bought recombinant biotinylated protein (Immunitrack ITF05 or ACRO FCM-C82W5); also called cFcRn; cFcRn/cb2M
# T1 sequence (Q8SPV9 24-297 limits assumed, chain 1 of 2): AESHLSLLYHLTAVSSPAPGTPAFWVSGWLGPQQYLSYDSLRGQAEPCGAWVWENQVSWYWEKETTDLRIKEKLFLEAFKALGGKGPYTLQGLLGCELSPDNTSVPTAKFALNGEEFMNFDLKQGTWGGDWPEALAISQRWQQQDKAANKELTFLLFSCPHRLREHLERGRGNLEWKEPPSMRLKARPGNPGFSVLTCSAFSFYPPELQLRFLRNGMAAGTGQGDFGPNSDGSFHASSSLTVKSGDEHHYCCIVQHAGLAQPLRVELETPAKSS
# T1 sequence (Q8SPW0 21-119 limits assumed, chain 2 of 2): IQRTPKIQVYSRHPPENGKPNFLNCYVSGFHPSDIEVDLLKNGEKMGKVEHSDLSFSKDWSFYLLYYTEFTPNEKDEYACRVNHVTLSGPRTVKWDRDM
# assay-details: SPR off-rate; pH 7.4 vs pH 6.0;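 also: surface plasmon resonance with diluted periplasmic extracts flowed over ligand surfaces, 120 s association and 600–3600 s dissociation at 25 °C, running buffer containing 150 mM NaCl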
kd ratio pH 7.4/6.0 of 60 or higher: true (1). Under 60: false (0).

# binder, cat
measured = [
    ("T0263018B11 F27Y (VHH, name in Kabat numbering, FLAG3-His6 tagged) VHH: EVQLVESGGGVVQPGGSLRLSCAASGYTFSSYAMYWVRQAPGKGLEWVSAISSGGGSTDYADSVKGRFTISRDNSKNTLYLQMNSLRPEDTALYYCAADTLYTSLTWYSYWGQGTLVTVSS", "true (1)"),
    ("T0263018B11 G54D (VHH, name in Kabat numbering, FLAG3-His6 tagged) VHH: EVQLVESGGGVVQPGGSLRLSCAASGFTFSSYAMYWVRQAPGKGLEWVSAISSGDGSTDYADSVKGRFTISRDNSKNTLYLQMNSLRPEDTALYYCAADTLYTSLTWYSYWGQGTLVTVSS", "false (0)"),
    ("T0263018B11 F29G (VHH, name in Kabat numbering, FLAG3-His6 tagged) VHH: EVQLVESGGGVVQPGGSLRLSCAASGFTGSSYAMYWVRQAPGKGLEWVSAISSGGGSTDYADSVKGRFTISRDNSKNTLYLQMNSLRPEDTALYYCAADTLYTSLTWYSYWGQGTLVTVSS", "false (0)"),
    ("T0263018B11 T57N (VHH, name in Kabat numbering, FLAG3-His6 tagged) VHH: EVQLVESGGGVVQPGGSLRLSCAASGFTFSSYAMYWVRQAPGKGLEWVSAISSGGGSNDYADSVKGRFTISRDNSKNTLYLQMNSLRPEDTALYYCAADTLYTSLTWYSYWGQGTLVTVSS", "false (0)"),
    ("T0263018B11 T96Q (VHH, name in Kabat numbering, FLAG3-His6 tagged) VHH: EVQLVESGGGVVQPGGSLRLSCAASGFTFSSYAMYWVRQAPGKGLEWVSAISSGGGSTDYADSVKGRFTISRDNSKNTLYLQMNSLRPEDTALYYCAADQLYTSLTWYSYWGQGTLVTVSS", "false (0)"),
    ("T0263018B11 S101Q (VHH, name in Kabat numbering, FLAG3-His6 tagged) VHH: EVQLVESGGGVVQPGGSLRLSCAASGFTFSSYAMYWVRQAPGKGLEWVSAISSGGGSTDYADSVKGRFTISRDNSKNTLYLQMNSLRPEDTALYYCAADTLYTSLTWYQYWGQGTLVTVSS", "false (0)"),
    ("T0263018B11 S30T (VHH, name in Kabat numbering, FLAG3-His6 tagged) VHH: EVQLVESGGGVVQPGGSLRLSCAASGFTFTSYAMYWVRQAPGKGLEWVSAISSGGGSTDYADSVKGRFTISRDNSKNTLYLQMNSLRPEDTALYYCAADTLYTSLTWYSYWGQGTLVTVSS", "false (0)"),
    ("T0263018B11 T57A (VHH, name in Kabat numbering, FLAG3-His6 tagged) VHH: EVQLVESGGGVVQPGGSLRLSCAASGFTFSSYAMYWVRQAPGKGLEWVSAISSGGGSADYADSVKGRFTISRDNSKNTLYLQMNSLRPEDTALYYCAADTLYTSLTWYSYWGQGTLVTVSS", "false (0)"),
]

Now look at this one.
Prompt line: // inclusive: kd ratio pH 7.4/6.0 at least 60? input: T0263018B11 Y35F (VHH, name in Kabat numbering, FLAG3-His6 tagged) VHH: EVQLVESGGGVVQPGGSLRLSCAASGFTFSSYAMFWVRQAPGKGLEWVSAISSGGGSTDYADSVKGRFTISRDNSKNTLYLQMNSLRPEDTALYYCAADTLYTSLTWYSYWGQGTLVTVSS
Response line: false (0)
